assay: qHTS assay for small molecules that induce genotoxicity in human embryonic kidney cells expressing luciferase-tagged ATAD5 (AID 651632); details: HEK293T ATAD5-luciferase induction, 16 h; series mostly up to 83.3 µM; further: nearly all actives have a fitted effect of over 15% in size
Results filed as inconclusive are left out. Activity calls are given as the source filed them. The call rests on the fitted dose curve; in most records, active means well fitted activation curve with a large enough effect in the repeat runs; inconclusive means weak or mixed curves; inactive means no such curve, though single readings can be large or run the other way.
Pick from label 1 (active), label 0 (inactive) when you respond.

These recorded examples may help you get a feel for the data.
molecule	class name
CCCCOC(=O)C(C)CC (stereo not drawn)	label 0
N[C@@H](CSSC[C@H](N)C(=O)O)C(=O)O	label 0
NCCCCCCNCCCCCCN	label 0
CCCCCCC(C)OC(=O)COc1nc(F)c(Cl)c(N)c1Cl (stereo not drawn)	label 0
Cn1cnc2ncnc(N)c21	label 0
O=C(Oc1ccccc1)c1cccc(C(=O)Oc2ccccc2)c1	label 1

Query: Which outcome did this test record for the molecule COc1cc(C=C2CCC/C(=C\c3ccc(O)c(OC)c3)C2=O)ccc1O ?
Result: label 0

Query: Which outcome did this test record for the molecule O=C(O)c1cccc(Cl)n1 ?
Result: label 0

Query: Which outcome did this test record for the molecule CCCCCCOc1cc(C)c(O)c(C)c1C ?
Result: label 0

Query: Which outcome did this test record for the molecule CCCCNc1c(C(=O)OCC)c(C)nc2c1cnn2CC ?
Result: label 0

Query: Which outcome did this test record for the molecule O=C1Nc2ccc(Cl)cc2[C@@](C#CC2CC2)(C(F)(F)F)O1 ?
Result: label 0

Query: Which outcome did this test record for the molecule CCCCCCCOC(=O)c1ccc(O)cc1 ?
Result: label 0

Query: Which outcome did this test record for the molecule CSc1ccc2c(c1)N(CCC1CCCCN1C)c1ccccc1S2 (stereo not drawn) ?
Result: label 0

---

assay: qHTS assay to identify small molecule agonists of the estrogen receptor beta (ER-beta) signaling pathway - cell viability counter screen (AID 1259380); conditions: ER-beta-bla HEK293T viability, CellTiter-Glo luminescence, 16 h; series mostly up to 92.4 µM; further: nearly all actives have a fitted effect of over 30% in size; further: potency means the concentration at half of the fitted maximal effect
Records with an inconclusive call do not appear. The source made the active and inactive calls. Calls follow the shape of the dose curve; as a rule, active = well fitted cell-killing curve with a large enough effect in the repeat runs; inconclusive = weak or mixed curves, or effect the other way; inactive = flat fitted curve, though single readings scatter.
metric name: Potency

compound	Potency
CCCCNc1c(C(=O)OCC)c(C)nc2c1cnn2CC	inactive
CCN(CC)CCOC(=O)C1(C2CCCCC2)CCCCC1	26.6 µM (active)
COc1ccc(-n2nc(CCC(=O)N(C)O)cc2-c2ccc(Cl)cc2)cc1	7.5 µM (active)
C[Si](C)O[Si](C)C	inactive
Nc1cc(Cl)c([N+](=O)[O-])cc1O	inactive
CCN(CC)CCSC(=O)C(c1ccccc1)c1ccccc1	29.8 µM (active)

Query: Return value of Potency for input [O]=[Zr] , no commentary.
Result: inactive

Query: Return value of Potency for input CCCCCCCC/C=C\CCCCCCCC(=O)OCCOC(=O)CCCCCCC/C=C\CCCCCCCC , no commentary.
Result: inactive

Query: Return value of Potency for input CC(C)=CCCC(C)O (centres undefined) , no commentary.
Result: inactive

Query: Return value of Potency for input OCCC(O)CO (centres undefined) , no commentary.
Result: inactive

Query: Return value of Potency for input CC(C)=CCCC(C)CCOC(=O)C(C)C (centres undefined) , no commentary.
Result: inactive

Query: Return value of Potency for input CC(C(O)c1ccccc1)N(C)CCOC(c1ccccc1)c1ccccc1 (centres undefined) , no commentary.
Result: 29.8 µM (active)

Query: Return value of Potency for input CC(=O)Nc1ccc(O)cc1 , no commentary.
Result: inactive

Query: Return value of Potency for input CCCCCCCCCCCCCC[n+]1ccccc1 , no commentary.
Result: 30.6 µM (active)
